Test system: TPA-induced epidermal hyperplasia
runDescription: Inhibition of TPA-induced epidermal hyperplasia (epidermal thickness) on back skin of mice
Format: in vivo, BALB/c mice
experimentalSetup: Mus musculus; Hill equation fit; means ± SD; steroid premixed with TPA, topical; read-out: Emax (% inhibition)
Measured Emax by item
endpointName: Emax

[[record]]
compound = "CC1(C)O[C@@H]2C[C@H]3[C@@H]4CCC5=CC(=O)C=C[C@]5(C)[C@@]4(F)[C@@H](O)C[C@]3(C)[C@]2(C(=O)CO)O1 [Triamcinolone acetonide]"
value = "89.8%"

[[record]]
compound = "C[C@@H]1C[C@H]2[C@@H]3CCC4=CC(=O)C=C[C@]4(C)[C@@]3(F)[C@@H](O)C[C@]2(C)[C@@]1(O)C(=O)CO [Dexamethasone]"
value = "90.7%"

[[record]]
compound = "CC1(C)O[C@@H]2C[C@H]3[C@@H]4CCC5=CC(=O)CC[C@]5(C)[C@@]4(F)[C@@H](O)C[C@]3(C)[C@]2(C(=O)CCl)O1 [Halcinonide]"
value = "92.5%"

[[record]]
compound = "CC1(C)O[C@@H]2C[C@H]3[C@@H]4C[C@H](F)C5=CC(=O)C=C[C@]5(C)[C@@]4(F)[C@@H](O)C[C@]3(C)[C@]2(C(=O)CO)O1 [Fluocinolone acetonide, fluocinolone acetonide]"
value = "89.6%"


* * *

Test system: TPA-induced epidermal hyperplasia
runDescription: Inhibition of TPA-induced epidermal hyperplasia (epidermal thickness) on back skin of mice
Type: in vivo, BALB/c mice
experimentalSetup: from Hill-equation IC50; hydrocortisone acetate = 1.0
endpointName: Relative potency

[[record]]
compound = "C[C@H]1C[C@H]2[C@@H]3CCC4=CC(=O)C=C[C@]4(C)[C@@]3(F)[C@@H](O)C[C@]2(C)[C@@]1(O)C(=O)CO"
experimentaltarget = "TPA-induced epidermal hyperplasia"
endpointname = "Relative potency"
value = 1.35

[[record]]
compound = "CC(=O)OCC(=O)[C@@]1(O)CC[C@H]2[C@@H]3CCC4=CC(=O)CC[C@]4(C)[C@H]3[C@@H](O)C[C@@]21C [Hydrocortisone acetate, hydrocortisone acetate]"
experimentaltarget = "TPA-induced epidermal hyperplasia"
endpointname = "Relative potency"
value = 1.0

[[record]]
compound = "C[C@@H]1C[C@H]2[C@@H]3CCC4=CC(=O)C=C[C@]4(C)[C@@]3(F)[C@@H](O)C[C@]2(C)[C@@]1(O)C(=O)CO"
experimentaltarget = "TPA-induced epidermal hyperplasia"
endpointname = "Relative potency"
value = 29.10

[[record]]
compound = "CCCCC(=O)O[C@]1(C(=O)CO)[C@@H](C)C[C@H]2[C@@H]3CCC4=CC(=O)C=C[C@]4(C)[C@@]3(F)[C@@H](O)C[C@@]21C [Betamethasone valerate, betamethasone valerate]"
experimentaltarget = "TPA-induced epidermal hyperplasia"
endpointname = "Relative potency"
value = 244.47

[[record]]
compound = "CCC(=O)OCC(=O)[C@@]1(OC(=O)CC)[C@@H](C)C[C@H]2[C@@H]3CCC4=CC(=O)C=C[C@]4(C)[C@@]3(F)[C@@H](O)C[C@@]21C [Betamethasone dipropionate, betamethasone dipropionate]"
experimentaltarget = "TPA-induced epidermal hyperplasia"
endpointname = "Relative potency"
value = 45.27

[[record]]
compound = "CC1(C)O[C@@H]2C[C@H]3[C@@H]4CCC5=CC(=O)C=C[C@]5(C)[C@@]4(F)[C@@H](O)C[C@]3(C)[C@]2(C(=O)CO)O1 [Triamcinolone acetonide]"
experimentaltarget = "TPA-induced epidermal hyperplasia"
endpointname = "Relative potency"
value = 32.45

[[record]]
compound = "CC1(C)O[C@@H]2C[C@H]3[C@@H]4C[C@H](F)C5=CC(=O)C=C[C@]5(C)[C@@]4(F)[C@@H](O)C[C@]3(C)[C@]2(C(=O)CO)O1 [Fluocinolone acetonide, fluocinolone acetonide]"
experimentaltarget = "TPA-induced epidermal hyperplasia"
endpointname = "Relative potency"
value = 94.03

[[record]]
compound = "CCC(=O)OCC(=O)[C@@]1(OC(=O)CC)[C@H](C)C[C@H]2[C@H]3[C@H]([C@@H](O)C[C@@]21C)[C@@]1(C)C=CC(=O)C=C1C[C@H]3Cl [Alclometasone dipropionate]"
experimentaltarget = "TPA-induced epidermal hyperplasia"
endpointname = "Relative potency"
value = 41.20

[[record]]
compound = "CC1(C)O[C@@H]2C[C@H]3[C@@H]4CCC5=CC(=O)CC[C@]5(C)[C@@]4(F)[C@@H](O)C[C@]3(C)[C@]2(C(=O)CCl)O1 [Halcinonide]"
experimentaltarget = "TPA-induced epidermal hyperplasia"
endpointname = "Relative potency"
value = 37.80


* * *

Measured pIC50 by item
Tested on: TPA-induced inflammatory cell infiltration into the dermis
runDescription: Inhibition of TPA-induced inflammatory cell infiltration into the dermis of mice
Format: in vivo, BALB/c mice
experimentalSetup: Mus musculus, read from concentration-response curve; concentration that inhibited 50% of the TPA effect; read-out: IC50 for inhibition of inflammatory cell infiltration in the dermis (M × 10^−4)
pIC50: −log10 of the molar value.
endpointName: pIC50

[[record]]
molecule = "CCC(=O)OCC(=O)[C@@]1(OC(=O)CC)[C@@H](C)C[C@H]2[C@@H]3CCC4=CC(=O)C=C[C@]4(C)[C@@]3(F)[C@@H](O)C[C@@]21C [Betamethasone dipropionate, betamethasone dipropionate]"
endpointname = "pIC50"
value = 4.40

[[record]]
molecule = "C[C@@H]1C[C@H]2[C@@H]3CCC4=CC(=O)C=C[C@]4(C)[C@@]3(F)[C@@H](O)C[C@]2(C)[C@@]1(O)C(=O)CO"
endpointname = "pIC50"
value = 3.39

[[record]]
molecule = "CC(=O)OCC(=O)[C@@]1(O)CC[C@H]2[C@@H]3CCC4=CC(=O)CC[C@]4(C)[C@H]3[C@@H](O)C[C@@]21C [Hydrocortisone acetate, hydrocortisone acetate]"
endpointname = "pIC50"
value = 1.96

